Assay: Half life in dog at 1 mg/kg, iv
Assay type: ADME, organism-based, Canis lupus familiaris
Settings: in vivo
METRIC: half-life (min)
Answers are plain numbers, in min.

Reported half-life ( C[C@H](Nc1nc(N)nc(N)c1C#N)c1nc2cccc(Cl)c2c(=O)n1-c1cccnc1 ) = 336

* * *

Test: MRT in Sprague-Dawley rat at 1 mg/kg, iv measured over 24 hrs by LC/MS/MS analysis
Type: ADME, organism-based
Details: in vivo
METRIC: MRT (h)
Answers are plain numbers, in h.

Kindly note the recorded MRT for N#Cc1c(N)nc(N)nc1N[C@H](c1nc2c(F)ccc(Cl)c2c(=O)n1-c1cccnc1)C1CC1 , which is 1.95

* * *

Assay: Clearance in cynomolgus monkey at 1 mg/kg, iv measured over 24 hrs by LC/MS/MS analysis
Type: ADME, organism-based, Macaca fascicularis
Settings: in vivo
METRIC: clearance (mL/min/kg)
Answers are plain numbers, in mL/min/kg.

Documented clearance of N#Cc1c(N)nc(N)nc1N[C@H](c1nc2c(F)ccc(Cl)c2c(=O)n1-c1cccnc1)C1CC1 [GS-9901] : 6.83

* * *

Experiment: Half life of the compound
Assay type: physicochemical
Assignment: determine reported half-life for the given compounds.
Answers are plain numbers, in h.

{"columns": ["STRUCTURE_SMILES", "UNIT_DESCRIPTOR", "half-life"],
 "data": [
  ["C[C@H](Nc1nc(N)nc(N)c1C#N)c1nc2cccc(Cl)c2c(=O)n1-c1ccccc1", "h", 358]
]}

Kindly consider the entry below.
The measured half-life associated with C[C@H](Nc1nc(N)nc(N)c1C#N)c1nc2cccc(F)c2c(=O)n1-c1cc(F)cc(F)c1 reads 34

* * *

Experiment: Clearance in cynomolgus monkey at 1 mg/kg, iv
Type: ADME, organism-based, Macaca fascicularis
Details: in vivo
METRIC: clearance (mL/min/kg)
Give bare numbers, in mL/min/kg.

Field clearance (entry C[C@H](Nc1nc(N)nc(N)c1C#N)c1nc2cccc(Cl)c2c(=O)n1-c1cccnc1 ) reads 1.67

* * *

Experiment: Half life in rat at 1 mg/kg, iv
Type: ADME, organism-based
Conditions: in vivo
METRIC: half-life (h)
Answers are plain numbers, in h.

So for C[C@H](Nc1nc(N)nc(N)c1C#N)c1nc2cccc(Cl)c2c(=O)n1-c1cccnc1 , the logged half-life turned out to be 2.5

* * *

Test: Clearance in Beagle dog at 1 mg/kg, iv measured over 24 hrs by LC/MS/MS analysis
Assay type: ADME, organism-based, Canis lupus familiaris
Details: in vivo
METRIC: clearance (mL/min/kg)
One number for each entry, in mL/min/kg.

Entry under test: N#Cc1c(N)nc(N)nc1N[C@H](c1nc2c(F)ccc(Cl)c2c(=O)n1-c1cccnc1)C1CC1 [GS-9901] . Its clearance was 9

* * *

Experiment: Chemical stability of the compound at pH 2 phosphate buffer assessed as time required for 90% hydrolytic degradation at 100 ug/ml and 40 degreeC by UPLC-UV analysis
Type: physicochemical
Settings: in the assay text read “10% hydrolytic degradation” for “90% hydrolytic degradation”, dose 100 µg/ml
Decide by Time: equal to or exceeding 3 h means yes (1), less means no (0).

Worked set:
{"columns": ["MOLECULE", "LABEL_VALUE"],
 "data": [
  ["C[C@H](Nc1nc(N)nc(N)c1C#N)c1nc2cccc(Cl)c2c(=O)n1-c1cccnc1", "no (0)"],
  ["Cc1c(F)cncc1-n1c([C@H](C)Nc2nc(N)nc(N)c2C#N)nc2cccc(Cl)c2c1=O (stereo in doubt; 27)", "yes (1)"],
  ["C[C@H](Nc1nc(N)nc(N)c1C#N)c1nc2c(F)ccc(Cl)c2c(=O)n1-c1cncc(F)c1", "no (0)"],
  ["Cc1ncccc1-n1c([C@H](C)Nc2nc(N)nc(N)c2C#N)nc2cccc(Cl)c2c1=O (stereo in doubt; 23)", "yes (1)"],
  ["C[C@H](Nc1nc(N)nc(N)c1C#N)c1nc2c(F)ccc(Cl)c2c(=O)n1-c1cccnc1", "no (0)"]
]}

**Q:** Given the entry CC[C@H](Nc1nc(N)nc(N)c1C#N)c1nc2c(F)ccc(Cl)c2c(=O)n1-c1cccnc1 , answer whether its Time meets or surpasses 3 h.
**A:** no (0)

**Q:** # bool: Time of Cc1ccncc1-n1c([C@H](C)Nc2nc(N)nc(N)c2C#N)nc2cccc(Cl)c2c1=O (stereo in doubt; 25) >= 3 h
**A:** yes (1)

**Q:** Is it the case that C[C@H](Nc1nc(N)nc(N)c1C#N)c1nc2cccc(Cl)c2c(=O)n1-c1cncc(F)c1 has Time reaching or exceeding 3 h?
**A:** no (0)

Measured values drawn from ChEMBL document CHEMBL4765230 for this set.
